The reported measurements were obtained from ChEMBL document CHEMBL1134697.

# assay remarks: Antiproliferative activity was determined after 72 hr exposure to human melanoma Fem-x cells
# Format: functional, cell-based
Recorded measurements of pIC50, one per entry
Notebook: values listed as pIC50 are -log10 of the concentration (mol/L).

INSERT INTO assay_data (compound, result_value) VALUES
  ('C[C@]12CCC3[C@@H](CC[C@]45O[C@H]4C(=O)C(Br)=C[C@]35O)[C@@H]1CCC2=O (some centres not stated)', 6.00);

Form: compound = C[C@]12CCC3[C@@H](CCC4=C(Br)C(=O)C=C[C@@]43O)[C@@H]1CCC2=O (some centres not stated) ; pIC50 = 5.34
